Taken from ChEMBL document CHEMBL2390916.

Biological target: Coagulation factor X (Homo sapiens, UniProt P00742)
Sequence (P00742 41-179 limits assumed): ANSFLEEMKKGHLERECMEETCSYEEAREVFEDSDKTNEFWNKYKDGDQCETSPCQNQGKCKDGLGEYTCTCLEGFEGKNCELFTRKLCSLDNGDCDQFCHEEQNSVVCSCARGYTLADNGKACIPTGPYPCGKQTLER
Sequence (P00742 235-488 limits assumed): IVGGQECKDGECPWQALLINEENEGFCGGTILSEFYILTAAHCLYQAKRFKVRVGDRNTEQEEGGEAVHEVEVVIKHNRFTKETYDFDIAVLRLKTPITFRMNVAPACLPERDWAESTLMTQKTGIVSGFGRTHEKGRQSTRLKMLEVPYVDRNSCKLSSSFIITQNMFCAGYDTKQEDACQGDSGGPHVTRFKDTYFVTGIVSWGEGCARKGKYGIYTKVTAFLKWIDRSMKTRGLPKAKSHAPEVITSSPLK
measurement_label: Ki (µM)
Numbers only, in µM.

Worked examples follow.
molecule	system_tested	measurement_label	result_value
CCOC(=O)C1CCCCN1c1ccc(N2C[C@H](CNC(=O)c3cnc(N)s3)OC2=O)cc1.O=C(O)C(F)(F)F (stereo partly drawn)	Coagulation factor X (Homo sapiens, UniProt P00742)	Ki	28.7
CCOC(=O)C1(C)CCCN(c2ccc(N3C[C@H](CNC(=O)c4cnc(N)s4)OC3=O)cc2)C1=O.O=C(O)C(F)(F)F (stereo partly drawn)	Coagulation factor X (Homo sapiens, UniProt P00742)	Ki	55.6

# value lookup — system Coagulation factor X (Homo sapiens, UniProt P00742), readout Ki, item CC(=O)O.N=C(N)c1ccc(C(=O)NC[C@H]2CN(c3ccc(N4CCC(C(=O)O)CC4)cc3)C(=O)O2)cc1
43

---

Biological target: Coagulation factor X (Homo sapiens)
Assignment: determine reported Ki for the given compounds.
Write your answer as a measured quantity: the number, then the unit.

Worked examples follow.
compound	measurement_label	result_value
Nc1cc(C(=O)NC[C@@H]2CN(c3ccc(N4CCC(C(=O)O)CC4)cc3)C(=O)O2)ccc1Cl	Ki	57.7 µM
O=C(O)C1CCN(c2ccc(N3C[C@@H](CNCc4ccc(-c5noc(=O)[nH]5)cc4)OC3=O)cc2)CC1	Ki	94.8 µM
Nc1cc(C(=O)NC[C@H]2CN(c3ccc(N4CCC(C(=O)O)CC4)cc3)C(=O)O2)ccc1Cl	Ki	37 µM
CC(=O)O.N=C(N)c1ccc(CNC[C@H]2CN(c3ccc(N4CCC(C(=O)O)CC4)cc3)C(=O)O2)cc1	Ki	54.1 µM
CCOC(=O)C1CCN(c2ccc(N3C[C@H](CNC(=O)c4ccc(Cl)c(N)c4)OC3=O)cc2)CC1	Ki	10.8 µM
CCOC(=O)C1CCN(c2ccc(N3C[C@H](CNC(=O)c4cnc(N)s4)OC3=O)cc2)C(=O)C1.O=C(O)C(F)(F)F (stereo partly drawn)	Ki	38.2 µM
CC(=O)O.CCOC(=O)C1CCN(c2ccc(N3C[C@@H](CNCc4ccc(C(=N)N)cc4)OC3=O)cc2)CC1	Ki	25.6 µM

Given the entry CC(=O)O.N=C(N)c1ccc(C(=O)NC[C@@H]2CN(c3ccc(N4CCC(C(=O)O)CC4)cc3)C(=O)O2)cc1 , report its measured Ki.
62.9 µM

---

Target: Integrin alpha-IIb/beta-3 (Homo sapiens, UniProt P05106+P08514)
Sequence (P05106 27-788 limits assumed): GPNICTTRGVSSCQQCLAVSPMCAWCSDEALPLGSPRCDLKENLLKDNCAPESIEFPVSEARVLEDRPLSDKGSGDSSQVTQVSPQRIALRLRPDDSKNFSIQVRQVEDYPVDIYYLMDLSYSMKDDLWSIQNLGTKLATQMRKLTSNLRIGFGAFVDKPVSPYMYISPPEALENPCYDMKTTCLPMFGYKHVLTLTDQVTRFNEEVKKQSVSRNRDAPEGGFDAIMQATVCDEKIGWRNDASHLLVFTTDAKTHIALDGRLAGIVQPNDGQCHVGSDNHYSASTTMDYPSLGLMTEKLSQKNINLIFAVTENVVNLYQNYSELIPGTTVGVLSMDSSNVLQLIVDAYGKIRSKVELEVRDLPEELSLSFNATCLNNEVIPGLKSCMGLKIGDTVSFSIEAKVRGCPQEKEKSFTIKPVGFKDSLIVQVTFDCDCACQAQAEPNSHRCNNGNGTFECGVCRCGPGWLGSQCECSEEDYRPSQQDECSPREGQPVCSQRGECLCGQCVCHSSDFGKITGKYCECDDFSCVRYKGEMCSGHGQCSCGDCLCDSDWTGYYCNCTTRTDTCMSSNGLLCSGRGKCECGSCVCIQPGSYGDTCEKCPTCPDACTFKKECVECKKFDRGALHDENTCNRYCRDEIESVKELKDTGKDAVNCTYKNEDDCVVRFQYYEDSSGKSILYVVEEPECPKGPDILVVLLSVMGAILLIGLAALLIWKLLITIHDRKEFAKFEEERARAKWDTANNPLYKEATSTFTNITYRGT
Sequence (P08514 32-887 limits assumed): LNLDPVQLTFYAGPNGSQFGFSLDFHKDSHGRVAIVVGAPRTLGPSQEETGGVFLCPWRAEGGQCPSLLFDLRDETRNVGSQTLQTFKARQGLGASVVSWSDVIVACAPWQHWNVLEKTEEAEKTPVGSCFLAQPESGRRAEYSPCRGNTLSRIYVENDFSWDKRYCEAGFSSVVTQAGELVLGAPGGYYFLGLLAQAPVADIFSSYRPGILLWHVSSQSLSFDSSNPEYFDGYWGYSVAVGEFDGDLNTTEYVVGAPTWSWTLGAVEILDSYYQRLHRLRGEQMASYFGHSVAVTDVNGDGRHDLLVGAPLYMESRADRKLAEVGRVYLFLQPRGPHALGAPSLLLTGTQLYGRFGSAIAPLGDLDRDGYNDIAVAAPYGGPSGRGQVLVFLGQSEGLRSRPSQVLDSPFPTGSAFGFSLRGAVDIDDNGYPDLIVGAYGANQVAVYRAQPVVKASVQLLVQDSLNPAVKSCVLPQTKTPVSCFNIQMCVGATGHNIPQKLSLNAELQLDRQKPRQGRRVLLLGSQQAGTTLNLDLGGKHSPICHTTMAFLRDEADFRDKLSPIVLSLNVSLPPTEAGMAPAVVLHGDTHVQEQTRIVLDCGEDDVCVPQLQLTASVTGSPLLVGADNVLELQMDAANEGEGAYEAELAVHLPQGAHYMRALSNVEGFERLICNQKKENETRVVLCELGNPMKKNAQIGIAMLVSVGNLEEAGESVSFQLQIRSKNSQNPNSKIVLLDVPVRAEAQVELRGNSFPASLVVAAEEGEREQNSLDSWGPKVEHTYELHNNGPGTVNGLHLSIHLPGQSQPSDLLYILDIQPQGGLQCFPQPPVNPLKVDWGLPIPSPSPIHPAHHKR
Sequence (P08514 891-1039 limits assumed): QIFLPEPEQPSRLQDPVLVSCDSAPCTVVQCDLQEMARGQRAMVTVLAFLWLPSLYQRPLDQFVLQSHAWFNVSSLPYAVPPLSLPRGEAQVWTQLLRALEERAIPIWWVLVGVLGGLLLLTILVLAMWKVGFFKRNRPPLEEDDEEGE
Assay: Displacement of biotinylated fibrinogen from human glycoprotein 2b/3a receptor after 2 hrs by chemiluminescence assay
measurement_label: pIC50
Numbers only, as −log10 of the molar value.

compound_smiles	result_value
CC(=O)O.CCOC(=O)C1CCN(c2ccc(N3C[C@@H](CNC(=O)c4ccc(C(=N)N)cc4)OC3=O)cc2)CC1	4.02
CC(=O)O.N=C(N)c1ccc(CNC[C@H]2CN(c3ccc(N4CCC(C(=O)O)CC4)cc3)C(=O)O2)cc1	5.66
Nc1ncc(C(=O)NC[C@H]2CN(c3ccc(N4CCC(C(=O)O)CC4)cc3)C(=O)O2)s1.O=C(O)C(F)(F)F	4.11
CC(=O)O.N=C(N)c1ccc(C(=O)NC[C@H]2CN(c3ccc(N4CCC(C(=O)O)CC4)cc3)C(=O)O2)cc1	4.92
CC(=O)O.N=C(N)c1ccc(C(=O)NC[C@@H]2CN(c3ccc(N4CCC(C(=O)O)CC4)cc3)C(=O)O2)cc1	5.33
CC(=O)O.CCOC(=O)C1CCN(c2ccc(N3C[C@H](CNC(=O)c4ccc(C(=N)N)cc4)OC3=O)cc2)CC1	4.85

For the next question, use this compound.
Given the entry O=C(O)C1CCN(c2ccc(N3C[C@@H](CNCc4ccc(-c5noc(=O)[nH]5)cc4)OC3=O)cc2)CC1 , report its measured pIC50.
6.59
